Measured target: GDP-bound KRAS protein (aa 1-169), containing both G12C and C118A amino acid substitutions (Homo sapiens (Human), UniProt P01116, C118A/G12C)
Sequence (P01116 other isoform, or with tags, fused parts or gaps G12C/C118A): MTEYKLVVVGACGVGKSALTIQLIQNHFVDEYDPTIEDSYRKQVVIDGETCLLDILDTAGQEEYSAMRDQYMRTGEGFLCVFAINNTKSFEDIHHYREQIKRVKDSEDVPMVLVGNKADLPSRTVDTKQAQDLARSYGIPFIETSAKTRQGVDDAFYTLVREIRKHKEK
Method description: Coupled Nucleotide Exchange Assay
Assay type: biochemical
Conditions: read-out: Coupled Exchange IC50 (2 h); 2 h compound pre-incubation
pIC50: −log10 of the molar value.
Endpoint label: pIC50

Compound | Endpoint label | Operator | Reported measurement
C=CC(=O)N1CC(NC(=O)Cn2c(-c3ncccn3)cc3cc(Cl)ccc32)C1 [Example 196] | pIC50 | = | 4.34
C=CC(=O)N1CC(NC(=O)Cn2ccc3cc(Cl)cc(Cl)c32)C1 [Example 165] | pIC50 | = | 4.88
C=CC(=O)N1CC(NC(=O)Cn2cc(Cc3ccccc3)c3ccccc32)C1 [Example 213] | pIC50 | = | 4.51
C=CC(=O)N1CC(NC(=O)Cn2c(C)c(-c3ccccc3N(C)C)c3cc(Cl)ccc32)C1 [Example 98] | pIC50 | = | 5.95
C=CC(=O)N1CC(N(C)C(=O)Cn2c(C)c(C(=O)N3CCN(c4ccc(Br)cn4)CC3)c3cc(Br)ccc32)C1 [Example 21] | pIC50 | = | 6.31
C=CC(=O)N1CC(NC(=O)Cn2cc(C(=O)N3CCc4c(C)cccc4C3)c3cc(Br)cc(C)c32)C1 [Example 94] | pIC50 | = | 6.68
C=CC(=O)N1CC(NC(=O)Cn2cc(-c3ccc(F)cc3F)c3cc(-c4ccc(F)cc4F)ccc32)C1 [Example 210] | pIC50 | < | 3.60
C=CC(=O)N1CC(NC(=O)Cn2cc(-c3cccc4ccccc34)c3cc(Br)cc(C)c32)C1 [Example 110] | pIC50 | = | 5.36
C=CC(=O)N1CC(NC(=O)Cn2cc(-c3ccccc3OC)c3cc(Br)ccc32)C1 [Example 151] | pIC50 | = | 5.36
C=CC(=O)N1CC(NC(=O)Cn2c3ccc(Br)cc3c3cc(Br)ccc32)C1 [Example 193] | pIC50 | < | 3.60
C=CC(=O)N1CC(NC(=O)Cn2ccc3cc(Br)cc(C)c32)C1 [Example 190] | pIC50 | = | 4.80
C=CC(=O)N1CC(NC(=O)Cn2cc(-c3ccccc3C(C)C)c3cc(Br)cc(C)c32)C1 [Example 119] | pIC50 | = | 5.77
C=CC(=O)N1CC(NC(=O)Cn2c3ccc(Br)cc3c3ccncc32)C1 [Example 259] | pIC50 | = | 4.57
C=CC(=O)N1CC(NC(=O)Cn2c(C)c(C(=O)N3CCc4ccccc4C3CC)c3cc(Br)cc(C)c32)C1 (stereo not drawn) [Example 59] | pIC50 | = | 6.09
C=CC(=O)N1CC(NC(=O)Cn2c(C)c(-c3ccccc3CN(C)C)c3cc(Cl)ccc32)C1 [Example 32] | pIC50 | = | 5.22
COc1cccc2c1CCN(C(=O)c1cn(CC(=O)NC3CN(C(=O)/C=C/CN(C)C)C3)c3ccc(Br)cc13)C2 [Example 149] | pIC50 | = | 5.44
C=CC(=O)N1CC(NC(=O)Cn2c(C(=O)OC)cc3c(Cl)c(Cl)ccc32)C1 [Example 220] | pIC50 | = | 4.91
C=CC(=O)N1CC(NC(=O)Cn2ccc3cc(Br)cc(F)c32)C1 [Example 267] | pIC50 | = | 4.81
